Biological target: T1, recombinant human IL-23R/Fc chimera (R&D Systems) (human, UniProt Q5VWK5 24-355)
T1 construct: Bought; also called rhIL23RFc
T1 sequence (looked up): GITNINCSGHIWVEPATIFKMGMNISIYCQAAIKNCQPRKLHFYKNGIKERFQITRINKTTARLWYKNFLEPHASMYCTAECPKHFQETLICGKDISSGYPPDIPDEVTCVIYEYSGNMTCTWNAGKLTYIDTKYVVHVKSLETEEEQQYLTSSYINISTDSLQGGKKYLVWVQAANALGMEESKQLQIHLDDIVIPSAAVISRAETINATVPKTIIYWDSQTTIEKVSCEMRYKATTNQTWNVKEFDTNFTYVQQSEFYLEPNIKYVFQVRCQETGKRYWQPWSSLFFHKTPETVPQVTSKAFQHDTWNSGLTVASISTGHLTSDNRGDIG
Experiment: SPR
Form field: kon (one value per entry).

As a guide, the following entries are already answered.
Incoming: Consider the binder 056-40.A3C ATRIMER complex (designed binder, Homotrimer of this chain (ATRIMER complex)., not shown: A possible extra N-terminal Ser from the ompA junction is left out) EPPTQKPKKIVNAKKDVVNTKMFEELKSRLDTLAQEVALLKEQQALQTVCLKGTKVHMKCFLAFTQTKTFHEASEDCISRGGTLSTPQTGSENDALYEYLRQSVGNEAEIWLGLNGSATTATWVDMTGARIAYKNWETEITAQPDGGFGYFGENCAVLSGAANGKWFDKRCRDQLPYICQFGIV and give its measured kon.
Outgoing: 213000 M⁻¹ s⁻¹

Incoming: Bench note: what kon did 105-08-1A3 ATRIMER complex (designed binder, Homotrimer of three identical chains (ATRIMER complex); one chain is given., not shown: C-terminal tag: His/Myc (pANA4) or HA-StrepII (pANA10)) EPPTQKPKKIVNAKKDVVNTKMFEELKSRLDTLAQEVALLKEQQALQTVCLKGTKVHMKCFLAFTQTKTFHEASEDCISRGGTLSTPQTGSENDALYEYLRQSVGNEAEIWLGLNGSPRTDTWVDMTGARIAYKNWETEITAQPDGGWGVFGENCAVLSGAANGKWFDKRCRDQLPYICQFGIV show?
Outgoing: 735000 M⁻¹ s⁻¹

Incoming: I have this binder here, 101-51-1A3 ATRIMER complex (designed binder, Forms a homotrimer through the tetranectin coiled coil; one protomer is given., not shown: C-terminal tag: His/Myc (pANA4) or HA-StrepII (pANA10)) EPPTQKPKKIVNAKKDVVNTKMFEELKSRLDTLAQEVALLKEQQALQTVCLKGTKVHMKCFLAFTQTKTFHEASEDCISRGGTLSTPQTGSENDALYEYLRQSVGNEAEIWLGLNGSALTNTWVDMTGARIAYKNWEHQPVYQPGGGWGVFGENCAVLSGAANGKWFDKRCRDQLPYICQFGIV , and I need its recorded kon.
Outgoing: 463000 M⁻¹ s⁻¹

Others:
Incoming: // kon lookup, key: 105-20-1H1 ATRIMER complex (designed binder) EPPTQKPKKIVNAKKDVVNTKMFEELKSRLDTLAQEVALLKEQQALQTVCLKGTKVHMKCFLAFTQTKTFHEASEDCISRGGTLSTPQTGSENDALYEYLRQSVGNEAEIWLGLNGSPLTNTWVDMTGARIAYKNWETEITAQPDGGWGYFGENCAVLSGAANGKWFDKRCRDQLPYICQFGIV
Outgoing: 374000 M⁻¹ s⁻¹

Incoming: Quick check: kon of 001-87.A4A ATRIMER complex (designed binder, not shown: C-terminal tag: His/Myc (pANA4) or HA-StrepII (pANA10)) EPPTQKPKKIVNAKKDVVNTKMFEELKSRLDTLAQEVALLKEQQALQTVCLKGTKVHMKCFLAFTQTKTFHEASEDCISRGGTLSTPQTGSENDALYEYLRQSVGNEAEIWLGLNWTLAKNLWVDMTGARIAYKNWETEITAQPDGGLFGRGENCAVLSGAANGKWFDKRCRDQLPYICQFGIV ?
Outgoing: 50600 M⁻¹ s⁻¹

Incoming: Look at this binder and give its reported kon. 056-53.H1G ATRIMER complex (designed binder, Homotrimer of this chain (ATRIMER complex)., not shown: A possible extra N-terminal Ser from the ompA junction is left out) EPPTQKPKKIVNAKKDVVNTKMFEELKSRLDTLAQEVALLKEQQALQTVCLKGTKVHMKCFLAFTQTKTFHEASEDCISRGGTLSTPQTGSENDALYEYLRQSVGNEAEIWLGLNSGHWRAVWVDMTGARIAYKNWETEITAQPDGGFGVFGENCAVLSGAANGKWFDKRCRDQLPYICQFGIV
Outgoing: 95200 M⁻¹ s⁻¹
